# ASSAYED TARGET: C-RAF (Homo sapiens, UniProt P04049, Y340E/Y341E)
# Construct: His tag (implied by nickel chromatography) (cleaved yes); StrepII tag (cleaved yes); MEK1 substrate from E. coli
# Sequence (P04049 whole entry Y340E/Y341E): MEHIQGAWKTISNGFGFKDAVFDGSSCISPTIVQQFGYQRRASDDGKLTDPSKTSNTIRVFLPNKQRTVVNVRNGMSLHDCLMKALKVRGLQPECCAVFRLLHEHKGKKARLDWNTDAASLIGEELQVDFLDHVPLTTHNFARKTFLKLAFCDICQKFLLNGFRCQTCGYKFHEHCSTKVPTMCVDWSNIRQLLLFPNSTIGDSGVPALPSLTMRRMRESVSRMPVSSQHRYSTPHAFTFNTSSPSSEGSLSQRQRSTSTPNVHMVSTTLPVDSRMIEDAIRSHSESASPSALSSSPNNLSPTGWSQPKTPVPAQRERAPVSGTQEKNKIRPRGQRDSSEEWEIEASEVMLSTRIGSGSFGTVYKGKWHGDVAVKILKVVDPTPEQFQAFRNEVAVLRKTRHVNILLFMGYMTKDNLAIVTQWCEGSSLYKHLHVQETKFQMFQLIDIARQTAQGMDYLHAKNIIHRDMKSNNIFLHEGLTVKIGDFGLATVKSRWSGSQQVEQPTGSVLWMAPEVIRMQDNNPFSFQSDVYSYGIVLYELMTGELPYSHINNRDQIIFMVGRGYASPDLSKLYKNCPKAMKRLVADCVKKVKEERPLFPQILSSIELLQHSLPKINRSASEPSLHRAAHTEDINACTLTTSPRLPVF
# Sequence (P63104 whole entry partner): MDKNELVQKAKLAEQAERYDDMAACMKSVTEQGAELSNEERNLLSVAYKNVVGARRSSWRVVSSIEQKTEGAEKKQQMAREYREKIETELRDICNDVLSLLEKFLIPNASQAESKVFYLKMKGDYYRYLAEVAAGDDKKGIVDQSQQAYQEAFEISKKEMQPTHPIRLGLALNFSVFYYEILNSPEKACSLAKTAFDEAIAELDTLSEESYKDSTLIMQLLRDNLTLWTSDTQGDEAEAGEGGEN
# EXPERIMENT: In vitro Raf activity determination (Alpha Screen, biotinylated kinase-dead MEK1 substrate), C-Raf
# CONDITION DESCRIPTION: c-Raf approximately 4 nM; ATP 1 μM; pre-incubation 60 minutes; reaction 1 hour at room temperature
OBSERVABLE: pIC50
Note on units: pIC50 is unitless, being -log10 of a concentration expressed in mol/L.

// solved cases for pIC50 follow
> print(dat)
                                chem.smiles  measured.value
1  Cc1ncc(NC(=O)c2ccnc(C(C)(C)C#N)c2)cc1-c1cnc(OCCO)c(C#N)c1            8.04
2  COCCNc1ncc(-c2cc(NC(=O)c3ccnc(C(F)F)c3)ccc2C)cc1C#N            9.72
3  Cc1ccc(NC(=O)c2cccc(S(C)(=O)=O)c2)cc1-c1cnc(N2CC(C)(O)C2)c(C#N)c1            9.21
4  Cc1ccc(NC(=O)c2ccnc(C(F)(F)F)c2)cc1-c1cnc(-c2cnn(C)c2)c(C#N)c1           10.13

Would you kindly look at the next entry?
Lookup: Entry under review: "Cc1ccc(NC(=O)c2cccc(C(F)(F)F)c2)cc1-c1cncc(C#N)c1" . Reported pIC50?
Found: 9.21
